Where do these numbers come from? They come from ChEMBL document CHEMBL1146801.

Listed here: items and their measured 2 x APTT.
species on record: Homo sapiens; assay: Concentration of compound required to double the human activated partial thromboplastin time; assay type: functional
measured attribute: 2 x APTT (µM)

>>> reported_measurement("C=CCN(C(=O)c1cc(C)cc(OCCCON=C(N)N)c1)C1CCCC1")
11.3
>>> reported_measurement("CCCN(Cc1ccoc1)C(=O)c1cc(C)cc(OCCCON=C(N)N)c1")
11.5
>>> reported_measurement("Cc1cc(OCCCON=C(N)N)cc(C(=O)N(Cc2ccoc2)CC2CC2)c1")
8.4
>>> reported_measurement("Cc1cc(OCC2(CON=C(N)N)CC2)cc(C(=O)N(Cc2ccoc2)CC2CC2)c1")
8.7
